# MEASURED_TARGET: HTRA1 protease domain HTRA1 (cat) (human, UniProt F1N152 165-380 (bovine entry))
# Sequence (F1N152 165-380): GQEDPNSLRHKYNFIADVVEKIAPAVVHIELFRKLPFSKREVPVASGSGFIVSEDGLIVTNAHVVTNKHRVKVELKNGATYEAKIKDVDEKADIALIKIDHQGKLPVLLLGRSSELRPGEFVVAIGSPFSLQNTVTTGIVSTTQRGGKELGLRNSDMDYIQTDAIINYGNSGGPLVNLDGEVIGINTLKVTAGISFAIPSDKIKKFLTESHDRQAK
# TEST_SUMMARY: cell-based or functional assay
RECORDED_ENDPOINT: IC50 (nM) for HTRA1 (cat); decomposition rate of substrate peptide H2-Opt

Solved entries (count: 6):
peptide derivative H322AT (designed binder) DPQFGLFSKYRTPNCSQHEGMACYALYEPVCGSDMSTYANECTLCMKIREGGHNIKIIRNGPCGG : 45
peptide H321 (designed binder) DPQFGLFSKYRTPNCSDFDGMACYAFYEPVCGSDMSTYMNECALCMKIREGGHNIKIIRNGPCGG : 48
peptide H218 (designed binder) DPQFGLFSKYRTPNCLKSEGMACYAYYEPVCGSDMSTYANECTLCMKIREGGHNIKIIRNGPCGG : 72
peptide H308 (designed binder) DPQFGLFSKYRTPNCSDHAGMACVALYEPVCGSDMSTYENECVLCMKIREGGHNIKIIRNGPCGG : 37
peptide derivative H321AT (designed binder) DPQFGLFSKYRTPNCSDFDGMACYAFYEPVCGSDMSTYANECTLCMKIREGGHNIKIIRNGPCGG : 46
peptide H223 (designed binder) DPQFGLFSKYRTPNCTMDMGMACWAFYEPVCGSDMSTYANECTLCMKIREGGHNIKIIRNGPCGG : 41

1 = peptide M7 (designed binder) DPQFGLFSKYRTPNCSDHAGMACVAFYEPVCGSDMSTYANECTLCMKIREGGHNIKIIRNGPCGG
2 = peptide H228 (designed binder) DPQFGLFSKYRTPNCGHYNGWACQAFFEPVCGSDMSTYANECTLCMKIREGGHNIKIIRNGPCGG
**Query** Given the listed records, identify the one among 1 and 2 with higher IC50 (nM) for HTRA1 (cat); decomposition rate of substrate peptide H2-Opt. Identify your selection by its label.
**Result** 2
(2: 71 nM, 1: 43 nM)
